This collection of values is drawn from patent US4778792A.

test: Normolipemic activity, lipid balance in normal or hypercholesterolemic mice; format: in vivo; conditions: per os, 50 mg/kg daily for 15 days, with respect to a control group
Structures can show the parent of a compound that is named as a salt.
Entries and their measured Liver weight / Body weight follow.
measurement.label: Liver weight / Body weight (%)

• CN1C(=O)C(C)(C)Oc2cc(C(=O)CCN3CCN(c4cccc(C(F)(F)F)c4)CC3)ccc21 [NM 8, hydrochloride] = -15
• CCCC(=O)c1ccc2c(c1)OC(C)(C)C(=O)N2CCC(=O)O = 0
• CN1C(=O)C(C)(C)Oc2cc(C(=O)CCN3CCOCC3)ccc21 [NM 7, hydrochloride] = -10
